The origin of these recorded values is PubChem BioAssay (EPA / NIEHS).

ASSAY_SYSTEM: Cellular tumor antigen p53 (Homo sapiens) (UniProt P04637)
Sequence (P04637 whole entry, looked up): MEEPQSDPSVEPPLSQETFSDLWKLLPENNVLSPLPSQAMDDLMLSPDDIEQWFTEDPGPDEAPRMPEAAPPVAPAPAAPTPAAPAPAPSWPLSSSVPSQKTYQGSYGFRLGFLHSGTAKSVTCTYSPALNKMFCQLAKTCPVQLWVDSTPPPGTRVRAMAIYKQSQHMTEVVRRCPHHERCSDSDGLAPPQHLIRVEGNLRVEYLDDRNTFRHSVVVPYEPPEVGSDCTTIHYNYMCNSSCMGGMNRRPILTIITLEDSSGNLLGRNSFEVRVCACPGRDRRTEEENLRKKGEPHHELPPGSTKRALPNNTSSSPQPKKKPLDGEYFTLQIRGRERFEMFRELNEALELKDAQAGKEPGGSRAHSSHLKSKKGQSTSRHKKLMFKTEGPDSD
EXPERIMENTAL_DETAILS: TOX21_p53_BLA_p4_ratio: Tox21 HCT-116 p53 Agonism Beta-lactamase Assay, Ratio, Phase 4 (AID 2283601)
Results filed as inconclusive are left out. The source made the active and inactive calls. How the source made its calls: active means hit-call score of the fitted dose curve at least 0.9, where 1 is the maximum; inconclusive means response in the unintended direction; inactive means score below 0.9.
Select the correct class. Options are True (active), False (inactive) and nothing else.

CNC(=O)ON=CC(C)(C)SC	False
C=CCC1=C(C)C(OC(=O)C2C(C=C(C)C)C2(C)C)CC1=O (stereo unspecified)	False
CCCC1COC(Cn2cncn2)(c2ccc(Cl)cc2Cl)O1 (stereo unspecified)	False

Enquiry: What did this assay record as the result for CC(C)C1(C)N=C(c2nc3ccccc3cc2C(=O)O)NC1=O (stereo unspecified) ?
Return: False

Enquiry: What did this assay record as the result for Cc1ccc(-c2c(Cl)nc(C#N)n2S(=O)(=O)N(C)C)cc1 ?
Return: True

Enquiry: What did this assay record as the result for C=CCC1=C(C)[C@@H](OC(=O)[C@@H]2[C@@H](C=C(C)C)C2(C)C)CC1=O ?
Return: False

Enquiry: What did this assay record as the result for C=CC1(C)OC(=O)N(c2cc(Cl)cc(Cl)c2)C1=O (stereo unspecified) ?
Return: False

Enquiry: What did this assay record as the result for COc1nc(C)nc(NC(=O)NS(=O)(=O)c2ccccc2Cl)n1 ?
Return: False

###

Read-out: xenobiotic metabolism (CYP1A1), CYP1A1 (gene 1543)
EXPERIMENTAL_DETAILS: CLD_CYP1A1_48hr: CellzDirect (CLD) Gene Expression Assay for xenobiotic metabolism (CYP1A1) at 48 hours (AID 2283705)
Experimental: CLD_48hr is a cell-based, multiplexed-readout assay that uses hepatocyte, a human liver primary cell, with measurements taken at 48 hours after chemical dosing in a 96-well plate.CLD_CYP1A1_48hr is one of 16 assay component(s) measured or calculated from the CLD_48hr assay. […] Furthermore, this assay endpoint can be referred to as a primary readout. […]
Records with an inconclusive call do not appear. The source made the active and inactive calls. Rule for the calls: active = hit-call score of the fitted dose curve at least 0.9, where 1 is the maximum; inconclusive = response in the unintended direction; inactive = score below 0.9.
Select the correct class. Options are active, inactive and nothing else.

Some solved cases for reference:
COc1nc(NC(C)C)nc(NC(C)C)n1	active
CCCCC(CC)COC(=O)c1ccccc1C(=O)OCC(CC)CCCC (stereo not drawn)	inactive
CCOC(=O)C(Cl)Cc1cc(-n2nc(C)n(C(F)F)c2=O)c(F)cc1Cl (stereo not drawn)	inactive
COc1nc(C)nc(NC(=O)NS(=O)(=O)c2ccccc2Cl)n1	inactive
CCCCNC(=O)OCC#CI	inactive
CC1COC(Cn2cncn2)(c2ccc(Oc3ccc(Cl)cc3)cc2Cl)O1 (stereo not drawn)	active
CCNc1nc(Cl)nc(NCC)n1	active
COP(=S)(OC)Oc1nc(Cl)c(Cl)cc1Cl	inactive

Consider now this further compound.
Enquiry: What did this assay record as the result for CCc1nn(C)c(C(=O)NCc2ccc(C(C)(C)C)cc2)c1Cl ?
Return: active

###

ASSAY_SYSTEM: CCAAT/enhancer-binding protein beta (Homo sapiens) (UniProt P17676)
Sequence (P17676 whole entry, looked up): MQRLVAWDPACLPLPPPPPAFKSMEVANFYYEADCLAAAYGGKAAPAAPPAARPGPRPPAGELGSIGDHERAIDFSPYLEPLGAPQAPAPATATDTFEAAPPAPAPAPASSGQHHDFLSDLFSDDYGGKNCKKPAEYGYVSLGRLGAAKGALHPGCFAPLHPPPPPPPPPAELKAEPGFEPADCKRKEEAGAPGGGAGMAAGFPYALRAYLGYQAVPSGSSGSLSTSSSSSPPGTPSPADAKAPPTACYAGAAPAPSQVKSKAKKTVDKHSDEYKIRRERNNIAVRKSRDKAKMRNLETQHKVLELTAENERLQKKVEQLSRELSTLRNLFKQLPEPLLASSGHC
EXPERIMENTAL_DETAILS: ATG_C_EBP_CIS: Attagene CIS-FACTORIAL HepG2 Assay for human CCAAT/Enhancer Binding Protein (C/EBP) beta (AID 2282927)
SETUP_CONDITIONS: HepG2 Attagene cis-factorial transcription factor reporter; actives raise or lower the signal
The source made the active and inactive calls. Rule for the calls: active = hit-call score of the fitted dose curve at least 0.9, where 1 is the maximum; inactive = score below 0.9.
Select the correct class. Options are true (1) (active), false (0) (inactive) and nothing else.

Some solved cases for reference:
N#CC(CCc1ccc(Cl)cc1)(Cn1cncn1)c1ccccc1 (stereo unspecified)	false (0)
COc1cnc(OC)n2nc(NS(=O)(=O)c3c(OCC(F)F)cccc3C(F)(F)F)nc12	false (0)
CCOC(=O)C(Cl)Cc1cc(-n2nc(C)n(C(F)F)c2=O)c(F)cc1Cl (stereo unspecified)	false (0)
CCc1nn(C)c(C(=O)NCc2ccc(C(C)(C)C)cc2)c1Cl	true (1)
CCCCOC(=O)c1ccccc1C(=O)OCCCC	false (0)
CON(C)C(=O)Nc1ccc(Cl)c(Cl)c1	false (0)
COC(=O)C=C(C)OP(=O)(OC)OC	false (0)
C=CCC1=C(C)[C@@H](OC(=O)[C@@H]2[C@@H](C=C(C)C)C2(C)C)CC1=O	false (0)

Enquiry: What did this assay record as the result for CC(C)(C)c1ccc(CSc2cnn(C(C)(C)C)c(=O)c2Cl)cc1 ?
Return: true (1)

Enquiry: What did this assay record as the result for CC(C)C1(C)N=C(c2nc3ccccc3cc2C(=O)O)NC1=O (stereo unspecified) ?
Return: false (0)

Enquiry: What did this assay record as the result for O=C(O)COc1nc(Cl)c(Cl)cc1Cl ?
Return: false (0)

Enquiry: What did this assay record as the result for Oc1ccccc1-c1ccccc1 ?
Return: false (0)

Enquiry: What did this assay record as the result for N#Cc1cc(Br)c(O)c(Br)c1 ?
Return: true (1)

Enquiry: What did this assay record as the result for CC1COC(Cn2cncn2)(c2ccc(Oc3ccc(Cl)cc3)cc2Cl)O1 (stereo unspecified) ?
Return: true (1)

Enquiry: What did this assay record as the result for OC(c1ccc(Cl)cc1)(c1cncnc1)c1ccccc1Cl (stereo unspecified) ?
Return: false (0)

Enquiry: What did this assay record as the result for Cc1ccc(-c2c(Cl)nc(C#N)n2S(=O)(=O)N(C)C)cc1 ?
Return: true (1)

Enquiry: What did this assay record as the result for COC(=O)N(OC)c1ccccc1COc1ccn(-c2ccc(Cl)cc2)n1 ?
Return: true (1)

Enquiry: What did this assay record as the result for COC(=O)c1ccccc1C(=O)OC ?
Return: false (0)

Enquiry: What did this assay record as the result for CC(Oc1ccc(Cl)cc1Cl)C(=O)O (stereo unspecified) ?
Return: false (0)

Enquiry: What did this assay record as the result for CCNc1nc(Cl)nc(NCC)n1 ?
Return: false (0)

Enquiry: What did this assay record as the result for O=C(Nc1ccccc1)Nc1ccnc(Cl)c1 ?
Return: true (1)

Enquiry: What did this assay record as the result for CCOP(=S)(OCC)SCn1c(=O)oc2cc(Cl)ccc21 ?
Return: true (1)

Enquiry: What did this assay record as the result for COP(N)(=O)SC (stereo unspecified) ?
Return: false (0)

Enquiry: What did this assay record as the result for Cc1c(F)c(F)c(COC(=O)C2C(/C=C(\Cl)C(F)(F)F)C2(C)C)c(F)c1F (stereo unspecified) ?
Return: false (0)
